- Measured On: human recombinant adrenergic α2A receptor (Homo sapiens, UniProt P08913)
- Construct: expressed in transfected cells; host or cells: insect Sf9 cells
- Run Description: Radioligand binding, adrenergic α2A ([3H]MK-912)
- Conditions: 0.1 μM compound; read-out: Percentage inhibition of ligand binding, Adrenergic α2A
The threshold is inclusive: inhibition at 0.1 µM of exactly 90% counts as true (1); values below receive false (0).

>>> classification("Cc1ccc2c(c1)c1c(n2CNc2ccccc2)CCN(C)C1")
"false (0)"
>>> classification("Cc1ccc(CCn2c3c(c4cc(Cl)c(Cl)cc42)CN(C)CC3)cn1")
"false (0)"
>>> classification("Cc1ccc2c(c1)c1c(n2CC(NC(C)C)c2ccncc2)CCN(C)C1 (stereo not shown)")
"false (0)"
>>> classification("Cc1ccc2c(c1)c1c(n2CC(C)(OC(=O)c2ccncc2)c2cccnc2)CCN(C)C1 (stereo not shown)")
"false (0)"
>>> classification("CCCc1ccc(/C(C)=C/n2c3c(c4cc(C)ccc42)CN(C)CC3)cn1")
"false (0)"
>>> classification("C/C(=C\\n1c2c(c3cc(C)ccc31)CN(C)CC2)c1ccc2ccccc2c1")
"true (1)"
>>> classification("C/C(=C\\n1c2c(c3cc(C)cc(C)c31)CN(C)CC2)c1cccc(S(C)(=O)=O)c1")
"false (0)"
>>> classification("C/C(=C/n1c2c(c3cc(C)ccc31)CN(C)CC2)c1cc2ccccc2s1")
"true (1)"
>>> classification("C/C(=C/n1c2c(c3cc(C)ccc31)CN(C)CC2)c1cc(C)cs1")
"true (1)"
>>> classification("Cc1ccc2c(c1)c1c(n2CC(NC2CCCC2)c2ccncc2)CCN(C)C1 (stereo not shown)")
"false (0)"
>>> classification("C/C(=C\\n1c2c(c3cc(C)ccc31)CN(C)CC2)c1cc(C)cs1")
"true (1)"
>>> classification("C/C(=C\\n1c2c(c3cc(C)cnc31)CN(C)CC2)c1ccc(F)cc1")
"false (0)"
>>> classification("Cc1ccc2c(c1)c1c(n2CCc2ccc3c(c2)CCCC3)CCN(C)C1")
"true (1)"
>>> classification("C/C(=C\\n1c2c(c3cc(C)ccc31)CN(C)CC2)c1ccc(C)s1")
"true (1)"

###

Collected log10(Ki) values appear next to each entry.
- Measured On: human recombinant adrenergic α2A receptor (Homo sapiens, UniProt P08913)
- Construct: expressed in transfected cells; host or cells: insect Sf9 cells
- Sequence (P08913 1-465): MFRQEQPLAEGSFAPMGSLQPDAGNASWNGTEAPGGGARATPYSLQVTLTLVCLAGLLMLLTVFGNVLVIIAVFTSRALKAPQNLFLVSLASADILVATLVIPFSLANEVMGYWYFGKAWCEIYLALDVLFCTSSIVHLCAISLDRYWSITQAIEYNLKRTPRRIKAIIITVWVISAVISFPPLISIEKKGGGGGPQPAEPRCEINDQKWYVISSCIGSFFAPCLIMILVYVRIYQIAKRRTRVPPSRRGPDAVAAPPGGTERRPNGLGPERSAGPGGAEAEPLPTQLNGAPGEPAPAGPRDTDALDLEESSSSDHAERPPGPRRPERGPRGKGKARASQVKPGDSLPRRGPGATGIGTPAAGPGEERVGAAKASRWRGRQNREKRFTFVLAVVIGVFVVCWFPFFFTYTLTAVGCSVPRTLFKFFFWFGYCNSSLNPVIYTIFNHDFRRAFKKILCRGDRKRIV
- Run Description: Radioligand binding, adrenergic α2A ([3H]MK-912)
Result Type: log10(Ki) (log10 of the value in nM)

>>> experimental_value("CN1CCc2c(c3cccc(Cl)c3n2CCc2ccccc2)C1")
0.98
>>> experimental_value("C/C(=C\\n1c2c(c3cc(C)ccc31)CN(C)CC2)c1ccc(C)nc1")
1.04
>>> experimental_value("Cc1cnc2c(c1)c1c(n2CCc2cccnc2)CCN2CCCC12 (single isomer, unassigned) [134b]")
2.01
>>> experimental_value("CN1CCc2c(c3c(Cl)cccc3n2CCc2ccccc2)C1")
1.36
>>> experimental_value("Cc1ccc2c(c1)c1c(n2CC(N)c2ccncc2)CCN(C)C1 (single isomer, unassigned) [27b]")
3.57
>>> experimental_value("Cc1ccc2c(c1)c1c(n2CC(O)c2ccncc2C)CCN(C)C1 (single isomer, unassigned) [133b]")
1.77
>>> experimental_value("Cc1cnc2c(c1)c1c(n2CC(C)(O)c2cccnc2)CCN2CCCC12 (single isomer, unassigned) [26a]")
2.05
>>> experimental_value("Cc1ccc2c(c1)c1c(n2C2=C(c3ccc4c(ccn4C)c3)CCC2)CCN(C)C1")
0.32

###

- Measured On: rat adrenergic α1B receptor (Rattus norvegicus, UniProt P15823)
- Construct: rat adrenergic α1B receptor obtained from Wistar Rat liver; from tissue; host or cells: Wistar rat liver
- Sequence (P15823 1-515): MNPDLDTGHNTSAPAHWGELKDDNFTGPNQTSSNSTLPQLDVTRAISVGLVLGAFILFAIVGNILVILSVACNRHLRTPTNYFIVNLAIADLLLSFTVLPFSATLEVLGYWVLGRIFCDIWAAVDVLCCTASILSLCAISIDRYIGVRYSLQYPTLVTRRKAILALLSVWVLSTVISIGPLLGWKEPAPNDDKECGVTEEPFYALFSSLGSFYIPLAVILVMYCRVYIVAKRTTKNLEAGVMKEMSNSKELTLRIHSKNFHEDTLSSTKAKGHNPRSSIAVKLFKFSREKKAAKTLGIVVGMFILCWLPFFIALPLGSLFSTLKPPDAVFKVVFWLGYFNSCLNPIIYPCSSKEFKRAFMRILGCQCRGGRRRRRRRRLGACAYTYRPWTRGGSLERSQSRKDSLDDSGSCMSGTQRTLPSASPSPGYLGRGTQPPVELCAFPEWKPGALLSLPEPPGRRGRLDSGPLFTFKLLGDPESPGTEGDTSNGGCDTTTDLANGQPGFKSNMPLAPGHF
- Run Description: Radioligand binding, adrenergic α1B ([3H]Prazosin)
- Conditions: compound at 0.1 μM; [3H]Prazosin; repeat datapoints each shown; 0.1 µM
Collected Percentage inhibition of ligand binding, Adrenergic α1B (0.1 μM) values appear next to each entry.
Result Type: Percentage inhibition of ligand binding, Adrenergic α1B (0.1 μM) (%)

>>> experimental_value("Cc1ccc2c(c1)c1c(n2CC(N=[N+]=[N-])c2ccc(F)cc2F)CCN(C)CC1 (single isomer, unassigned) [V-21b]")
34
>>> experimental_value("Cc1ccc2c(c1)c1c(n2CC(O)c2cn[nH]c2)CCN(C)C1 (single isomer, unassigned) [II-106b]")
31
>>> experimental_value("Cc1ccc2c(c1)c1c(n2CC(O)c2cc[nH]c(=O)c2)CCN2CCCC12 (single isomer, unassigned) [II-132b]")
68
>>> experimental_value("Cc1ccc2c(c1)c1c(n2CC(N)c2ccncc2)CC2CCC1N2C (single isomer, unassigned) [155b]")
1
>>> experimental_value("Cc1ccc(CCn2c3c(c4cc(Cl)cnc42)C2CCCN2CC3)cn1 (single isomer, unassigned) [137b]")
23
>>> experimental_value("Cc1ccc2c(c1)c1c(n2CC(C)(OCC(=O)O)c2cccnc2)CCN(C)C1 (single isomer, unassigned) [V-14b]")
2
>>> experimental_value("Cc1cnc2c(c1)c1c(n2CCc2ccncc2)CCN2CCCC12 (single isomer, unassigned) [II-244a]")
95
>>> experimental_value("Cc1ccc2c(c1)c1c(n2CC(OC(=O)CCC(=O)O)c2ccncc2)CCN2CCCC12 (single isomer, unassigned) [V-18b]")
95
>>> experimental_value("Cc1ccc2c(c1)c1c(n2CNc2ccccn2)CCN(C)C1 [compound 120]")
22
>>> experimental_value("Cc1ccc2c(c1)c1c(n2CC(C)(O)c2ccc(F)cc2)CCN2CCCC12 (single isomer, unassigned) [II-121a]")
98
>>> experimental_value("Cc1ccc2c(c1)c1c(n2CC(C)(O)c2cccnc2)CNCC1 (single isomer, unassigned) [128a]")
45
>>> experimental_value("Cc1ccc2c(c1)c1c(n2CC(C)(O)c2cccnc2)C(c2ccccc2)N(C)CC1 (centres unmarked) [II-112b]")
10
>>> experimental_value("Cc1ccc2c(c1)c1c(n2CC(C)(O)c2cccnc2)CC(C)N(C)C1 (single isomer, unassigned) [II-146b]")
13
>>> experimental_value("Cc1ccc2c(c1)c1c(n2CC(O)c2ccc(C)nc2)CCN2CCCC12 (single isomer, unassigned) [198a]")
24
>>> experimental_value("CN1CCc2c(c3cc(Cl)ccc3n2CC(C)(O)c2ccc(C(F)(F)F)nc2)C1 (single isomer, unassigned) [143b]")
17
>>> experimental_value("Cc1ccc2c(c1Cl)c1c(n2CC(C)(O)c2cccnc2)CCN(C)C1 (single isomer, unassigned) [II-124b]")
10
>>> experimental_value("Cc1cnc2c(c1)c1c(n2CC(C)(O)c2ccc(F)cc2)CCN(C)C1 (single isomer, unassigned) [138a]")
61
